Test system: MS2 coat protein
method summary: apparent Kd, MS2 coat protein; higher = weaker binding; RNA-MaP array; tryptophan 2.4 mM where present
condition info: ligand present: tryptophan; designed as: OFF switch for tryptophan
Entries and their measured apparent Kd follow.
observable: apparent Kd (nM)

[
  {
    "residue codes": "AGCACUGUGACGGCCGCCACUACAUAACAUGGGUGGUCAGGUUCAUUACAUGAGGAUCACCCAUGUAGGACCGGGUCUCAGUGCA",
    "target of assay": "MS2 coat protein",
    "observable": "apparent Kd",
    "assay result": 8.35
  },
  {
    "residue codes": "GAUAUACGUGCGGCCGCCACUGAGUGGCGGGCGUGUCGAGUUACAUGAGGAUCACCCAUGUCACUCAGGACCGGGCACGGAAUUU",
    "target of assay": "MS2 coat protein",
    "observable": "apparent Kd",
    "assay result": 11.4
  },
  {
    "residue codes": "GGUGGACUUUCGGCCGCCACUGAGAGAGUCGUGUGAACAUGAGGAUCACCCAUGUAAUAUAUAUACAGGACCGGGAGGGUUGUCC",
    "target of assay": "MS2 coat protein",
    "observable": "apparent Kd",
    "assay result": 15.9
  },
  {
    "residue codes": "GGCAAAAGGUCGGCCGCCACUGUAGGAUGUGUUCUUUCACAUGAGGAUCACCCAUGUUGUUAUUAUAGGACCGGGAUUUUAGGAC",
    "target of assay": "MS2 coat protein",
    "observable": "apparent Kd",
    "assay result": 21.1
  }
]

Data provenance is the EternaBench riboswitch data.
